pEC50 for assorted compounds
target: human CYP11B2 (Homo sapiens); assay: G-402 cellular enzyme assay, human CYP11B2 (aldosterone release, HTRF); conditions: G-402 cells expressing human CYP11B2; 1 μM Deoxycorticosterone
Sequence (P19099 25-503): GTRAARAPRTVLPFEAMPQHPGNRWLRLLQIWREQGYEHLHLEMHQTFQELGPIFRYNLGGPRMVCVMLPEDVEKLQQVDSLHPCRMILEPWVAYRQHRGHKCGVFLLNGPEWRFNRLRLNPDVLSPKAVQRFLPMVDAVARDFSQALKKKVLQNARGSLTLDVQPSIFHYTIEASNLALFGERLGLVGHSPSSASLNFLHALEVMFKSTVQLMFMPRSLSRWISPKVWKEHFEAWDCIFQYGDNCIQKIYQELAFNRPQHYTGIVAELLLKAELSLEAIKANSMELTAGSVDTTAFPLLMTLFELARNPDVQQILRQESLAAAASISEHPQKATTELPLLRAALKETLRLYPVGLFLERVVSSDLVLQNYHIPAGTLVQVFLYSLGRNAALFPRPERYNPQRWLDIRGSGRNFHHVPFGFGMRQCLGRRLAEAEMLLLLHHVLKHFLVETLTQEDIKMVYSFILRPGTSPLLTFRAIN
Counter-ions that a name gives are not always drawn.
# reply with the number alone; pEC50 is -log10 of concentration in mol/L

A selection of reference data follows.
- Compound: "Cc1noc(C)c1C(=O)NCCOc1cncc(-c2ccc3c(c2)CCC(=O)N3C)c1 [Example 102]"
  pEC50: 7.85
- Compound: "CN1C(=O)CCc2cc(-c3cncc(CNC(=O)c4cnn(C)c4)c3)c(F)cc21 [Example 175]"
  pEC50: 8.15
- Compound: "CN1C(=O)CCc2cc(-c3cncc(CN4CCCS4(=O)=O)c3)ccc21 [Example 179]"
  pEC50: 7.92
- Compound: "CN1C(=O)CCc2cc(-c3cncc(CNC(=O)c4ccccn4)c3)ccc21 [Example 97]"
  pEC50: 8.22
- Compound: "CCS(=O)(=O)NC(c1cncc(-c2ccc3c(c2)CCC(=O)N3C)c1)C1CC1 (racemic) [Example 177]"
  pEC50: 6.93

-- ask # input compound: CN1C(=O)CCc2cc(-c3cncc(CNC(=O)c4cn(CC(F)(F)F)nc4C4CC4)c3)ccc21 [Example 96] ; wanted: its pEC50
-- reply 7.66

-- ask Consider next the compound CN1C(=O)CCc2cc(-c3cncc(CNC(=O)c4ncccn4)c3)ccc21 [Example 99] in the same way.
-- reply 7.46

-- ask Try this compound next: CN(Cc1cncc(-c2cc(Cl)c3c(c2)CCC(=O)N3)c1)C(=O)c1ncccc1Cl [Example 216]
-- reply 7.38

-- ask Then CN1C(=O)CCc2cc(-c3cncc(O[C@@H]4CCNC4)c3)c(F)cc21 [Example 67, hydrochloride] ?
-- reply 6.80

-- ask CCN(C(C)c1cncc(-c2ccc3c(c2)CCC(=O)N3C)c1)S(=O)(=O)CC (racemic) [Example 187] , same question.
-- reply 7.57

-- ask Next compound up: CN1C(=O)CCc2cc(-c3cncc(CNC(=O)c4cccnn4)c3)ccc21 [Example 85]
-- reply 8.52

-- ask Ok, now CN1C(=O)CCc2cc(-c3cncc(O[C@H]4CCCNC4)c3)ccc21 [Example 61]
-- reply 6.29

-- ask // next record CN1C(=O)CCc2cc(-c3cncc(NCCO)c3)ccc21 [Example 4]
-- reply 7.96

-- ask Same lookup for CCS(=O)(=O)NCc1cncc(-c2cc3c(cc2F)N(C)C(=O)CC3)c1C [Example 192] , please.
-- reply 7.54

-- ask Here is the next compound: CN1C(=O)CCc2cc(-c3cncc(O[C@H]4CCN(C(=O)c5cnn(C)c5)C4)c3)ccc21 [Example 255]
-- reply 7.89

-- ask Same read-out for CCC(=O)N1CC[C@H](Oc2cncc(-c3cc4c(cc3F)N(C)C(=O)CC4)c2)C1 [Example 122] ?
-- reply 8.05

-- ask Input Cc1cnc(C(=O)NCc2cncc(-c3ccc4c(c3)CCC(=O)N4C)c2)cn1 [Example 124]
-- reply 8.30
